Provide the recorded IC50 for the entries that follow.
Test system: 186277-243-T-J2-PDC complex spheroid viability
protocol notes: Anticancer human tumor 186277-243-T-J2-PDC patient-derived colon adenocarcinoma cell line growth inhibition [POLQ]
condition: curve of first compound; second compound 1 µM
Numbers only, in nM.

{"columns": ["compound", "IC50 [nM]"],
 "data": [
  ["CC[C@@]1(O)C(=O)OCc2c1cc1n(c2=O)Cc2cc3c(CN(C)C)c(O)ccc3nc2-1 + Cc1cccc(N(C)C(=O)C2C(O)CCN2c2nc(C)cc(C(F)(F)F)c2C#N)c1", 86]
]}

Note: attention shifts to another entry.
Request: Fill in the blank: the reported IC50 of C=CCn1c(=O)c2cnc(Nc3ccc(N4CCN(C)CC4)cc3)nc2n1-c1cccc(C(C)(C)O)n1 + Nc1ccc(C#CCN(C(=O)Cc2ncc(C(F)(F)F)cc2C(F)(F)F)c2ccc(F)cc2)nn1 is ____.
Result: 214

---

Provide the recorded IC50 for the entries that follow.
System: 186277-243-T-J2-PDC complex spheroid viability
protocol notes: Anticancer human tumor 186277-243-T-J2-PDC cell line growth inhibition [POLQ];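 further: spheroids exposed to compounds for seven days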
condition: curve of first compound; second compound 0.1 µM
Numbers only, in µM.

Example entries begin here.
{"columns": ["molecule", "unit symbol", "IC50"],
 "data": [
  ["CC1COCCN1c1cc(-c2ccnn2C)c2ccnc(-c3ccn[nH]3)c2n1 (centres undefined) + Nc1ccc(C#CCN(C(=O)Cc2ncc(C(F)(F)F)cc2C(F)(F)F)c2ccc(F)cc2)nn1", "µM", 0.0752],
  ["CCc1c2c(nc3ccc(O)cc13)-c1cc3c(c(=O)n1C2)COC(=O)[C@]3(O)CC + Nc1ccc(C#CCN(C(=O)Cc2ncc(C(F)(F)F)cc2C(F)(F)F)c2ccc(F)cc2)nn1", "µM", 0.03]
]}

Go through the items and report each one's IC50.
1. C=CCn1c(=O)c2cnc(Nc3ccc(N4CCN(C)CC4)cc3)nc2n1-c1cccc(C(C)(C)O)n1 + Cc1cccc(N(C)C(=O)C2C(O)CCN2c2nc(C)cc(C(F)(F)F)c2C#N)c1
2. CCCS(=O)(=O)Nc1ccc(F)c(C(=O)c2c[nH]c3ncc(-c4ccc(Cl)cc4)cc23)c1F + COC1C(OC(N)=O)C(O)C(Oc2ccc3c(O)c(NC(=O)c4ccc(O)c(CC=C(C)C)c4)c(=O)oc3c2C)OC1(C)C

Result:
1. 0.23
2. 7.84

---

Test system: 186277-243-T-J2-PDC complex spheroid viability
protocol notes: Anticancer human tumor 186277-243-T-J2-PDC cell line growth inhibition [POLQ];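 further: spheroids exposed to compounds for seven days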;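 on viability, T/C: 100% = DMSO vehicle control viability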
condition: second compound 0.1 µM; first compound 0.1 µM; stronger effect = lower value
outcome measure: viability, T/C (%)
Answers are plain numbers, in %.

{"columns": ["compound", "outcome measure", "unit symbol", "test result"],
 "data": [
  ["CC1COCCN1c1cc(C2(O)CC3CCC(C2)O3)c2cnn(-c3ccn[nH]3)c2n1 (stereo unspecified) + COC1C(OC(N)=O)C(O)C(Oc2ccc3c(O)c(NC(=O)c4ccc(O)c(CC=C(C)C)c4)c(=O)oc3c2C)OC1(C)C", "viability, T/C", "%", 8.95],
  ["C=CC(=O)N1CCN(c2nc(=O)n(-c3c(C)ccnc3C(C)C)c3nc(-c4c(O)cccc4F)c(F)cc23)C(C)C1 (stereo unspecified) + Cc1cccc(N(C)C(=O)C2C(O)CCN2c2nc(C)cc(C(F)(F)F)c2C#N)c1", "viability, T/C", "%", 98.6],
  ["COc1cccc(OCCCN)c1-c1cc(Nc2cnc(C#N)cn2)n[nH]1 + COC1C(OC(N)=O)C(O)C(Oc2ccc3c(O)c(NC(=O)c4ccc(O)c(CC=C(C)C)c4)c(=O)oc3c2C)OC1(C)C", "viability, T/C", "%", 4.32]
]}

Go through the items and report each one's viability, T/C.
1. COc1cc2cc(C(=O)CCC(=O)O)sc2cc1OC + Cc1cccc(N(C)C(=O)C2C(O)CCN2c2nc(C)cc(C(F)(F)F)c2C#N)c1
2. O=C(Nc1ccc(O)c(NS(=O)(=O)c2ccc(F)cc2)c1)c1ccc(-c2ccccc2)cc1 + Cc1cccc(N(C)C(=O)C2C(O)CCN2c2nc(C)cc(C(F)(F)F)c2C#N)c1
3. COc1ccc([C@@H](O)c2cc(-c3ncnc4cc(N5CCOCC5)ccc34)c(F)cc2Cl)nn1 + Nc1ccc(C#CCN(C(=O)Cc2ncc(C(F)(F)F)cc2C(F)(F)F)c2ccc(F)cc2)nn1
4. CC1COCCN1c1cc(C2(S(C)(=N)=O)CC2)nc(-c2ccnc3[nH]ccc23)n1 (stereo unspecified) + Nc1ccc(C#CCN(C(=O)Cc2ncc(C(F)(F)F)cc2C(F)(F)F)c2ccc(F)cc2)nn1
5. COc1cc(C2c3cc4c(cc3C(OC3OC5COC(C)OC5C(O)C3O)C3COC(=O)C23)OCO4)cc(OC)c1O (stereo unspecified) + Cc1cccc(N(C)C(=O)C2C(O)CCN2c2nc(C)cc(C(F)(F)F)c2C#N)c1

Result:
1. 89.1
2. 102
3. 106
4. 90.5
5. 117

Go through the items and report each one's viability, T/C.
1. O=C(c1cc(Cc2n[nH]c(=O)c3ccccc23)ccc1F)N1CCN(C(=O)C2CC2)CC1 + COC1C(OC(N)=O)C(O)C(Oc2ccc3c(O)c(NC(=O)c4ccc(O)c(CC=C(C)C)c4)c(=O)oc3c2C)OC1(C)C
2. O=c1[nH]cc(F)c(=O)[nH]1 + Cc1cccc(N(C)C(=O)C2C(O)CCN2c2nc(C)cc(C(F)(F)F)c2C#N)c1
3. CCc1cc2c(N3CCc4c(cc(Cn5ccnc5)cc4-c4cn(C)nc4C(F)(F)F)C3=O)cc(C)nc2c(OC)n1 + COC1C(OC(N)=O)C(O)C(Oc2ccc3c(O)c(NC(=O)c4ccc(O)c(CC=C(C)C)c4)c(=O)oc3c2C)OC1(C)C

Result:
1: 102; 2: 99.9; 3: 92.2
